# ASSAYED SYSTEM: Receptor-interacting serine/threonine-protein kinase 3 (Homo sapiens)
# Sequence (Q9Y572 whole entry): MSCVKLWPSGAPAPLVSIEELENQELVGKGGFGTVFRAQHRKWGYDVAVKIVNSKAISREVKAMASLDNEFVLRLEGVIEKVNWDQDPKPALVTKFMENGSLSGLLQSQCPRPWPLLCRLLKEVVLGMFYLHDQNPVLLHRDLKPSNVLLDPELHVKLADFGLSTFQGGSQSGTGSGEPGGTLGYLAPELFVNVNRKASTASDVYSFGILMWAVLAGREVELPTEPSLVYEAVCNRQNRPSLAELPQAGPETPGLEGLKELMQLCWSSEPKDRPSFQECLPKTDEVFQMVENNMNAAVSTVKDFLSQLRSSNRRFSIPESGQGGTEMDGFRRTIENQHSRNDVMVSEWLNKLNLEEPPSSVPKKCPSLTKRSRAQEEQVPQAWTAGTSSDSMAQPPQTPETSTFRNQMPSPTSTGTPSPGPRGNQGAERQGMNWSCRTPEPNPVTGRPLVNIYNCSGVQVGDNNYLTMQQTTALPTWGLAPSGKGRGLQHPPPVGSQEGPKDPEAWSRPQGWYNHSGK
# PROCEDURE SUMMARY: Binding affinity to recombinant RIPK3 (unknown origin) assessed as dissociation constant incubated for 1 hr by KINOMEscanTM assay
MEASURED QUANTITY: Kd

{"SMILES REPR": "O=C(Cc1cccc(OC(F)(F)F)c1)Nc1cccc(-c2ccc3nc(NC(=O)C4CC4)sc3c2)c1F", "MEASURED QUANTITY": "Kd", "OBSERVED RESULT": "> 5 µM"}
{"SMILES REPR": "O=C(Cc1cccc(OC(F)(F)F)c1)Nc1cc(-c2ccc3nc(NC(=O)C4CC4)sc3c2)ccc1F", "MEASURED QUANTITY": "Kd", "OBSERVED RESULT": "> 5 µM"}

From: ChEMBL document CHEMBL5370665
